Test system: MDA-MB-231 cells
Assay summary: MDA-MB-231 proliferation assay
Assay type: cell-based
Run parameters: Homo sapiens, 72 hours, YO-PRO-1 readout
Value kind: GI50 (nM)

{"columns": ["Chem smiles", "GI50 [nM]"],
 "data": [
  ["CC1(C)/C(=N/OC[C@@H]2CN(CCO)C(=O)O2)c2cc(Br)ccc2-c2ncnc(N)c21", 459],
  ["CO/N=C1\\c2cc(CC3CCNCC3)ccc2-c2ncnc(N)c2C1(C)C", 630],
  ["CC1(C)/C(=N/OC[C@@H]2CNC(=O)O2)c2cc(I)ccc2-c2ncnc(N)c21", 240],
  ["CO/N=C1\\c2cc(C[C@H]3CC[C@@H](N)CC3)ccc2-c2ncnc(N)c2C1(C)C", 472],
  ["CC1(C)/C(=N/OCCCOCc2ccccc2)c2cc(O[C@H]3CC[C@H](N)CC3)ccc2-c2ncnc(N)c21", 1360]
]}

P = COC(=O)CO/N=C1\c2cc(O[C@H]3CC[C@H](N)CC3)ccc2-c2ncnc(N)c2C1(C)C
Q = CC1(C)/C(=N/O)c2cc(O[C@H]3CC[C@H](N)CC3)ccc2-c2ncnc(N)c21
Which value of GI50 is greater, the one for P or the one for Q ? Refer to your chosen entry by its label in the reply.
P

====

System: MDA-MB-231 cells
Assay summary: MDA-MB-231 proliferation assay
Assay type: cell-based
Run parameters: Homo sapiens, 72 hours, YO-PRO-1 readout
Value kind: GI50 (nM)

Worked cases, answers included:
{"columns": ["Chem smiles", "Test value"],
 "data": [
  ["COCCO/N=C1\\c2cc(O[C@H]3CC[C@H](N)CC3)ccc2-c2ncnc(N)c2C12CCCC2", 27.6],
  ["CC1(C)/C(=N/OCCC#N)c2cc(O[C@H]3CC[C@@H](N)CC3)ccc2-c2ncnc(N)c21", 96.2],
  ["COc1ccc2c(c1)/C(=N\\OC[C@@H]1CN(C)C(=O)O1)C(C)(C)c1c(N)ncnc1-2", 761],
  ["CC1(C)/C(=N/OCCOc2ccccc2)c2cc(O[C@H]3CC[C@@H](N)CC3)ccc2-c2ncnc(N)c21", 319],
  ["CC1(C)/C(=N/OCCCO)c2cc(O[C@H]3CC[C@H](N)CC3)ccc2-c2ncnc(N)c21", 714],
  ["CC1(C)/C(=N/OCCC#N)c2cc(O[C@H]3CC[C@H](N)CC3)ccc2-c2ncnc(N)c21", 169]
]}

a = Cc1noc(C)c1CO/N=C1\c2cc(O[C@H]3CC[C@H](N)CC3)ccc2-c2ncnc(N)c2C1(C)C
b = C#CCO/N=C1\c2cc(O[C@H]3CC[C@H](N)CC3)ccc2-c2ncnc(N)c2C1(C)C
Which value of GI50 is greater, the one for a or the one for b ? Refer to your chosen entry by its label in the reply.
a
(a: 1600 nM, b: 569 nM)

P = CO/N=C1\c2cc(O[C@H]3CC[C@H](N)CC3)sc2-c2ncnc(N)c2C1(C)C
Q = CC(C)(C#N)CCO/N=C1\c2cc(O[C@H]3CC[C@@H](N)CC3)ccc2-c2ncnc(N)c2C1(C)C
Please compare: P and Q . Report which one has the smaller GI50 value. Refer to your chosen entry by its label in the reply.
Q
(Q: 106 nM, P: 1150 nM)

1 = CC1(C)/C(=N/OCCCCF)c2cc(O[C@H]3CC[C@@H](N)CC3)ccc2-c2ncnc(N)c21
2 = COCCO/N=C1\c2cc(O[C@H]3CC[C@@H](N)CC3)ccc2-c2ncnc(N)c2C12CCCC2
Which value of GI50 is greater, the one for 1 or the one for 2 ? Refer to your chosen entry by its label in the reply.
1
